Item-by-item account of Apical domain, RLU
- testedSystem: T1, CD71 apical domain (UniProt P02786 189-383, limits assumed)
- T1 construct: domain: Apical domain
- T1 sequence (P02786 189-383 limits assumed): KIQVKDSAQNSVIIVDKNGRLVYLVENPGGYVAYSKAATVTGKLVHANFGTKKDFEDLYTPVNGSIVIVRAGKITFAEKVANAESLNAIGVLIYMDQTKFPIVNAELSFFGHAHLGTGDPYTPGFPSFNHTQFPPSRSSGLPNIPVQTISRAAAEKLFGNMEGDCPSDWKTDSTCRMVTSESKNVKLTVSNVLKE
- measurementDescription: solution ELISA
Give your result in RLU as a bare value.

Field: example entries. Status: answers known.
SEQ ID NO 137 (designed binder, FN3 domain) MLPAPKNLVVSRVTEDSARLSWTAPDAAFDSFYIAYAEPRPDGEAIVLDVPGSERSYDLTGLKPGTEYSVLIHGVKGGLLSSPLVAEFTT; 7.87e+06
SEQ ID NO 151 (designed binder, FN3 domain) MLPAPKNLVVSRVTEDSARLSWTAPDAAFDSFFIGYLEPQPPGEAIQLWVPGSERSYDLTGLKPGTEYNVTIQGVKGGFPSRPLQAHFTT; 4.04e+06
SEQ ID NO 127 (designed binder, FN3 domain) MLPAPKNLVVSRVTEDSARLSWTAPDAAFDSFYIAYAEPRPDGEAIFLGVPGSERSYDLTGLKPGTEYSVLIHGVKGGLLSSPLSAIFTT; 6.24e+06

Which Apical domain, RLU is listed for SEQ ID NO 145 (designed binder, FN3 domain) MLPAPKNLVVSRVTEDSARLSWTAPDAAFDSFYIAYAEPRPDGEAILLQVPGSERSYDLTGLKPGTEYSVLIHGVKGGLLSSPLTAIFTT ?
8.3e+06
